Target: CYP2D6 (Homo sapiens, UniProt P10635)
Construct: using a specific substrate approach in human liver microsomes; from tissue; host or cells: human liver microsomes
Sequence (P10635 whole entry): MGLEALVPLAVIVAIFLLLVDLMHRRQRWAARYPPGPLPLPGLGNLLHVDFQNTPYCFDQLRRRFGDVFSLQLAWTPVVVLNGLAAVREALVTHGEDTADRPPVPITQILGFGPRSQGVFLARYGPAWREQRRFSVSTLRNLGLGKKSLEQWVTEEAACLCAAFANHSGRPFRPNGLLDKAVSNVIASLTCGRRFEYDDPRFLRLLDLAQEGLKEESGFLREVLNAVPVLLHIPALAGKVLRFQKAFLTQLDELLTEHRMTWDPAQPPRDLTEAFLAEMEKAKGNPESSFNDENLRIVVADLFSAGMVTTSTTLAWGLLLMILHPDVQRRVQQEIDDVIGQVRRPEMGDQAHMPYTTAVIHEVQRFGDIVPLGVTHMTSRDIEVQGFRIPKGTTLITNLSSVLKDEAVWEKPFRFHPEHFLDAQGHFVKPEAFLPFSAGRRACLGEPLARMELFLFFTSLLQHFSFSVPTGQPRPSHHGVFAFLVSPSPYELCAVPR
Assay: CYP450 inhibition, specific substrate approach in human liver microsomes: CYP2D6
Assay type: in vitro ADME
pIC50: −log10 of the molar value.
reported_metric: pIC50

-- ask Quick one: pIC50 of CCn1c(CN(C)C)nc2c(O)c(Cl)cc(Cl)c2c1=O.Cl ?
-- reply < 4.70

-- ask Quick one: pIC50 of CN(C)Cc1nc2c(O)c(Cl)cc(Cl)c2c(=O)n1C ?
-- reply < 4.52

-- ask Quick one: pIC50 of Br.CCNCc1nc2c(O)c(Cl)cc(Cl)c2c(=O)n1C ?
-- reply < 4.52

* * *

Target: UniProtKB P08684
Sequence (P08684 2-503): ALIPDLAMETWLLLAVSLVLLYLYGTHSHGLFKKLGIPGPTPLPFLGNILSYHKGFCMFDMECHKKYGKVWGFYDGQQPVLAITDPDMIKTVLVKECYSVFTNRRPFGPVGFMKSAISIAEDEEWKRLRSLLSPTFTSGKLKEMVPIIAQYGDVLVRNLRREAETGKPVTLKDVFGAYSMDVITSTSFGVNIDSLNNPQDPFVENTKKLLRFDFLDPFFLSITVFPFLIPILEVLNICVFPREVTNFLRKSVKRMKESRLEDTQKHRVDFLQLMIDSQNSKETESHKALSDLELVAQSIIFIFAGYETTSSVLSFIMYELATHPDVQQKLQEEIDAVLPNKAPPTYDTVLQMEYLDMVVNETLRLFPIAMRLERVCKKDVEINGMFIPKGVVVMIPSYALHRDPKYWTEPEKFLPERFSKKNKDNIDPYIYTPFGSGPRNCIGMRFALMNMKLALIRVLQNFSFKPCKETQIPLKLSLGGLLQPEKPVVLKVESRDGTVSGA
Assay: CYP450 inhibition, specific substrate approach in human liver microsomes: CYP3A4
Assay type: in vitro ADME
Design: using a specific substrate approach in human liver microsomes; from tissue; host or cells: human liver microsomes
Conditions: midazolam, read-out: CYP3A4-Midazolam IC50
pIC50: −log10 of the molar value.
For each record, write down the corresponding pIC50.

-- ask // map CCn1c(CN(C)C)nc2c(O)c(Cl)cc(Cl)c2c1=O.Cl to recorded pIC50 (system: UniProtKB P08684)
-- reply ~4.70

-- ask // map CN(C)Cc1nc2c(O)c(Cl)cc(Cl)c2c(=O)n1C to recorded pIC50 (system: UniProtKB P08684)
-- reply < 4.52

-- ask // map CCNCc1nc2c(O)c(Cl)cc(Cl)c2c(=O)n1CC to recorded pIC50 (system: UniProtKB P08684)
-- reply < 4.52

* * *

Tested on: Fe-DA
Assay: H2O2 assay, Fe-DA (% cf. Fe 0.4 μM/DA 50 μM)
Assay type: biochemical
Settings: Fe 0.4 μM/DA 50 μM
For each record, write down the corresponding Fe-DA % cf. Fe 0.4 μM/DA 50 μM.
Unit % implied. Number only.

-- ask Quick one: Fe-DA % cf. Fe 0.4 μM/DA 50 μM of CCCN(CCC)Cc1nc2c(O)c(Cl)cc(Cl)c2c(=O)n1CCC ?
-- reply 71

-- ask Quick one: Fe-DA % cf. Fe 0.4 μM/DA 50 μM of CCn1c(CN2CCCCC2)nc2c(O)c(Cl)cc(Cl)c2c1=O ?
-- reply 62

-- ask Quick one: Fe-DA % cf. Fe 0.4 μM/DA 50 μM of CC(C)Cn1c(CN(C)C)nc2c(O)c(Cl)cc(Cl)c2c1=O.Cl ?
-- reply 57

-- ask Quick one: Fe-DA % cf. Fe 0.4 μM/DA 50 μM of CCCNCc1nc2c(O)c(Cl)cc(Cl)c2c(=O)n1CC ?
-- reply 40

Numbers sourced from patent US9145375B2.
